Target: Gonadotropin-releasing hormone receptor (Homo sapiens)
Sequence (P30968 whole entry): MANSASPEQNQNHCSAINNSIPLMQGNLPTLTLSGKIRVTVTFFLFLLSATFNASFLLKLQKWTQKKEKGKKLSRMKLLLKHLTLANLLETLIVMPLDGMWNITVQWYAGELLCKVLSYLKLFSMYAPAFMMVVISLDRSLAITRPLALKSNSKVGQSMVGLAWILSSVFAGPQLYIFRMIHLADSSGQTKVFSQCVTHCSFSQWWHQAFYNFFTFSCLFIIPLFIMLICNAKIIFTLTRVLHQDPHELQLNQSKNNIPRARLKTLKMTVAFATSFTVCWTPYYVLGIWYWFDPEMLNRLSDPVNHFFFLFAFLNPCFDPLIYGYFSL
Assay: Antagonist activity against human GnRH receptor expressed in CHO cells by IP-one HTRF assay
Measured Attribute: IC50 (nM)
Please state the figure in nM; there is no need to write the unit.

// worked examples, IC50 included
Molecule	Unit Of Measurement	Data Value
O=C(NCc1ncc(C(F)(F)F)cc1Cl)c1ccc2c(c1)C1(CCS(=O)(=O)CC1)C(C1CC1)N2S(=O)(=O)c1cccc(OC(F)(F)F)c1 (single isomer, unassigned; enantiomer 1)	nM	68
N#Cc1cccc(S(=O)(=O)N2c3ccc(C(=O)NCc4ncc(C(F)(F)F)cc4F)cc3C3(CCS(=O)(=O)CC3)C2C2CC2)c1 (single isomer, unassigned; enantiomer 1)	nM	107
O=C(NCc1ncc(C(F)(F)F)cc1Cl)c1ccc2c(c1)C1(CCS(=O)(=O)CC1)C(C1CC1)N2S(=O)(=O)c1ccc(Cl)cc1 (single isomer, unassigned; enantiomer 2)	nM	5.5
O=C(NCc1ncc(C(F)(F)F)cc1Cl)c1ccc2c(c1)C1(CCS(=O)(=O)CC1)C(C1CC1)N2S(=O)(=O)c1cccc(OC(F)(F)F)c1 (single isomer, unassigned; enantiomer 2)	nM	4210

Attention now turns to another entry.
IC50 on Gonadotropin-releasing hormone receptor (Homo sapiens) for N#Cc1cccc(S(=O)(=O)N2c3ccc(C(=O)NCc4ncc(C(F)(F)F)cc4F)cc3C3(CCS(=O)(=O)CC3)C2C2CC2)c1 (single isomer, unassigned; enantiomer 2) is 2310
